target.system: T1, human CD3E&G complex (Sino Biological Inc., CT041-H0305H) (human, UniProt P07766 23-126; P09693 23-116)
T1 construct: bought heterodimer; also called human CD3E&G antigen
T1 sequence (P07766 23-126, chain 1 of 2): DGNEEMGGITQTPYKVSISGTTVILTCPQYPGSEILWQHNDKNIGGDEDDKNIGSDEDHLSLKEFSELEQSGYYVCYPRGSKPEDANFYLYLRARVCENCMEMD
T1 sequence (P09693 23-116, chain 2 of 2): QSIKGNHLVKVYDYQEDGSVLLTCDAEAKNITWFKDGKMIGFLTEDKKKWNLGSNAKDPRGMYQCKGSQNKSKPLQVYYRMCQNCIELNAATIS
test: BLI, antibody on sensor
attribute.measured: Kd
Don't forget the unit after the value.

hzsp34.103 (antibody, human IgG1, lambda, L234A L235A, V domains shown, CDR mutant of hzsp34.24; IgG1 L234A L235A, lambda) VH: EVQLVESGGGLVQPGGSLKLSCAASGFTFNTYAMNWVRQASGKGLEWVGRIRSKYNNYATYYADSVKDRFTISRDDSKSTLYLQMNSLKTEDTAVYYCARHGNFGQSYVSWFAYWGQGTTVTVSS VL: QAVVTQEPSLTVSPGGTVTLTCRSSTGAVGTSNYANWVQQKPGQAPRGLIGGTNKRAPGVPARFSGSLLGDKAALTLLGAQPEDEAEYYCALWYSNLWVFGQGTKLTVLG :: 7.57 nM
hzsp34.115 (antibody, human IgG1, lambda, L234A L235A, V domains shown, CDR mutant of hzsp34.24; IgG1 L234A L235A, lambda) VH: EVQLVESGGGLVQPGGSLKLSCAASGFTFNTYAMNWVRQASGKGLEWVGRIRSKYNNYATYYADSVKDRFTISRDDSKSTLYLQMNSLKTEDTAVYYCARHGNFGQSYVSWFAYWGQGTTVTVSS VL: QAVVTQEPSLTVSPGGTVTLTCRSSTGAVTTSNYANWVQQKPGQAPRGLIGGTNSRAPGVPARFSGSLLGDKAALTLLGAQPEDEAEYYCALWYSNLWVFGQGTKLTVLG :: 7.7 nM

Okay, now this binder:
Would you mind telling me what Kd value was observed for hzsp34.88 (antibody, human IgG1, lambda, L234A L235A, V domains shown, CDR mutant of hzsp34.24; IgG1 L234A L235A, lambda) VH: EVQLVESGGGLVQPGGSLKLSCAASGFTFNTYAMNWVRQASGKGLEWVGRIRSKYNNYATYYADSVKDRFTISRDDSKSTLYLQMNSLKTEDTAVYYCARHGGFGQSYVSWFAYWGQGTTVTVSS VL: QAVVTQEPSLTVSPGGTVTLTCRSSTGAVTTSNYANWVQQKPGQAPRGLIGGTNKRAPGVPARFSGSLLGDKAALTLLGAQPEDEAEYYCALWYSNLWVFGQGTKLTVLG ?
15.8 nM

Measured values drawn from patent US20230374132A1 for this set.
